Data origin, for the record: paper PMC9786103

Target: CYP1A2 (Homo sapiens)
Assay: CYP1A2-mediated phenacetin O-deethylase (POD) activity in pooled human liver microsomes
Conditions: human, pooled human liver microsomes, probe phenacetin (100 µM)
readout.kind: inhibition at 15 min, 0.5 µM (%)
State the answer as a number, implicitly in %.

For this compound ( COc1c(O)c(C)cc2c1C(=O)c1c(O)cccc1C2=O ), measured inhibition at 15 min, 0.5 µM is 73.3

---

Biological target: CYP1A2 versus CYP2A6, CYP2B6, CYP2C8, CYP2C9, CYP2C19, CYP2D6, CYP2E1, CYP3A (Homo sapiens, UniProt P05177)
Sequence (P05177 whole entry): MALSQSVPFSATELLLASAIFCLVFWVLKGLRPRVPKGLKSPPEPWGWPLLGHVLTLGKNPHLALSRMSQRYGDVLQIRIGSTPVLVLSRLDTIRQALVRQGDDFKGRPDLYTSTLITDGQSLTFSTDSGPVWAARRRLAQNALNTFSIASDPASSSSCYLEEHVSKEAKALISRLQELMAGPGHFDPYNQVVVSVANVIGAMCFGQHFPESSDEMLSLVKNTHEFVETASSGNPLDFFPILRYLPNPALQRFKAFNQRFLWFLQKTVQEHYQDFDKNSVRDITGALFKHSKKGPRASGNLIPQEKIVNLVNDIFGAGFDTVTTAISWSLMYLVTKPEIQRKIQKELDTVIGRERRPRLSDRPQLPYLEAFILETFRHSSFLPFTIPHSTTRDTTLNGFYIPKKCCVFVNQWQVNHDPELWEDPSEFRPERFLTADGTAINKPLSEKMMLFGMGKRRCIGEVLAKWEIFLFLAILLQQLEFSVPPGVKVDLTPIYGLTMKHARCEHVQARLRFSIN
Experiment: CYP1A2-mediated phenacetin O-deethylase (POD) activity in pooled human liver microsomes
Details: human, pooled human liver microsomes
Procedure: The inhibitory potential of five major bioactive compounds from Cassiae semen against CYP1A2-mediated phenacetin O-deethylase (POD) activity was evaluated using previously developed methods with minor modifications. Briefly, the compounds were dissolved in methanol. […] Aliquots of supernatants were analyzed by liquid chromatography–tandem mass spectrometry (LC-MS/MS, LCMS 8060 system, Shimadzu, Kyoto, Japan). […]
readout.kind: selectivity ratio at 15 min

Reported selectivity ratio at 15 min ( COc1c(O)c(C)cc2c1C(=O)c1c(O)cccc1C2=O ) = > 150

---

Each item that follows carries a reported log10 IC50.
Target: CYP1A2 (Homo sapiens)
Experiment: CYP1A2-mediated phenacetin O-deethylase (POD) activity in pooled human liver microsomes
Procedure: The inhibitory potential of five major bioactive compounds from Cassiae semen against CYP1A2-mediated phenacetin O-deethylase (POD) activity was evaluated using previously developed methods with minor modifications. Briefly, the compounds were dissolved in methanol. […] Aliquots of supernatants were analyzed by liquid chromatography–tandem mass spectrometry (LC-MS/MS, LCMS 8060 system, Shimadzu, Kyoto, Japan). […]
Use the decimal logarithm of IC50 (µM).

Consider the worked cases shown below.
COc1cc(O)c2c(O)c3c(=O)cc(C)oc3cc2c1    0.80
Cc1cc(O)c2c(c1)C(=O)c1cc(O)cc(O)c1C2=O    -0.10
COc1c(O)c(C)cc2c1C(=O)c1c(O)cccc1C2=O    -0.72
COc1cc(O)c2c(c1)C(=O)c1cc(C)cc(O)c1C2=O    0.33

Input Cc1cc(O)c2c(c1)C(=O)c1cccc(O)c1C2=O . Output log10 IC50: 0.30

---

System: CYP1A1 and CYP1A2
Test: CYP1A1- and CYP1A2-mediated POD and EROD with recombinant enzymes (summary)
Assay type: biochemical
Conditions: human, summary bound
readout.kind: IC50

Record COc1c(O)c(C)cc2c1C(=O)c1c(O)cccc1C2=O . Reported IC50: < 570 nM

---

Target: UniProt P10635
Sequence (P10635 whole entry): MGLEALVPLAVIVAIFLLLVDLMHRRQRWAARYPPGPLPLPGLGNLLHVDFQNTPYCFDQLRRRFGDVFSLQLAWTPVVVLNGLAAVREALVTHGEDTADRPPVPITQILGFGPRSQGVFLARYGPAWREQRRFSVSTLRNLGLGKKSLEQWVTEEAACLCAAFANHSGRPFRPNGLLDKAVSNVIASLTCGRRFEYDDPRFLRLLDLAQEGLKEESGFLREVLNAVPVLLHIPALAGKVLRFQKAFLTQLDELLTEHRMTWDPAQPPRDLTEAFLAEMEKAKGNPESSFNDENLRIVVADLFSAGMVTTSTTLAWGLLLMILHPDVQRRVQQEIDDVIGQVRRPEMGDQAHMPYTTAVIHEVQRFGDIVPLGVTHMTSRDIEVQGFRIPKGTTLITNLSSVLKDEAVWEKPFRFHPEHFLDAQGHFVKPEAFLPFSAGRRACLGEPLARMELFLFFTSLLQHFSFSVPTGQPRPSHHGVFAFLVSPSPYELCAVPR
readout.kind: IC50

IC50 reported for this compound COc1c(O)c(C)cc2c1C(=O)c1c(O)cccc1C2=O : > 50 µM

---

Molecular target: UniProt:P05177
Assay: Time-dependent inhibition assay (IC50 shift) of CYP1A2-mediated POD in pHLMs
Assay type: biochemical
Design: tissue XenoTech XTreme 200; host or cells: pooled human liver microsomes
Conditions: human, pooled human liver microsomes, probe phenacetin (100 µM); 30 min preincubation with NGS vs without, pHLMs
readout.kind: IC50 shift at 15 min
Kindly provide the number alone.

// COc1c(O)c(C)cc2c1C(=O)c1c(O)cccc1C2=O : IC50 shift at 15 min value = 1.46

---

Target: CYP1A2 (Homo sapiens)
Assay: Time-dependent inhibition assay (IC50 shift) of CYP1A2-mediated POD in pHLMs
Format: biochemical
Parameters: tissue XenoTech XTreme 200; host or cells: pooled human liver microsomes
Conditions: 30 min preincubation with pHLMs and NGS, phenacetin 100 µM
readout.kind: IC50
Answer format reminder: number followed by unit.

Memo: COc1c(O)c(C)cc2c1C(=O)c1c(O)cccc1C2=O , reported IC50: 130 nM

---

Biological target: CYP2A6 (Homo sapiens, UniProt P11509)
Sequence (P11509 whole entry): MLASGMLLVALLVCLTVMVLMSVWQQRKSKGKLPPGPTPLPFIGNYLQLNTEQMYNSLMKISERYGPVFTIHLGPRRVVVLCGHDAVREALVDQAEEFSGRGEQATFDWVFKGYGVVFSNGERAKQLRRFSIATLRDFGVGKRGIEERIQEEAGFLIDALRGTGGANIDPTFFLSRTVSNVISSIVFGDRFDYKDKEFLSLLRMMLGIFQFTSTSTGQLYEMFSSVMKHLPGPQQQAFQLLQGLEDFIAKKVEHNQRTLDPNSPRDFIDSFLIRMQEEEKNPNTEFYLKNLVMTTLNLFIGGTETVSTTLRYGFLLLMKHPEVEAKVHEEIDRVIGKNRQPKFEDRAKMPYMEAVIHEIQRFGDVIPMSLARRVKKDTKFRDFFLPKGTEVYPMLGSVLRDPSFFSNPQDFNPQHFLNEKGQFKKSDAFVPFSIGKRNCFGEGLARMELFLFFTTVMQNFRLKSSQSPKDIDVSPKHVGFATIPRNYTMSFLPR
readout.kind: IC50

Query COc1c(O)c(C)cc2c1C(=O)c1c(O)cccc1C2=O yields IC50 of > 50 µM

---

Molecular target: rCYP1A1 (Homo sapiens)
Construct: purchased SPMED (Busan, Republic of Korea)
Sequence (P04798 1-512): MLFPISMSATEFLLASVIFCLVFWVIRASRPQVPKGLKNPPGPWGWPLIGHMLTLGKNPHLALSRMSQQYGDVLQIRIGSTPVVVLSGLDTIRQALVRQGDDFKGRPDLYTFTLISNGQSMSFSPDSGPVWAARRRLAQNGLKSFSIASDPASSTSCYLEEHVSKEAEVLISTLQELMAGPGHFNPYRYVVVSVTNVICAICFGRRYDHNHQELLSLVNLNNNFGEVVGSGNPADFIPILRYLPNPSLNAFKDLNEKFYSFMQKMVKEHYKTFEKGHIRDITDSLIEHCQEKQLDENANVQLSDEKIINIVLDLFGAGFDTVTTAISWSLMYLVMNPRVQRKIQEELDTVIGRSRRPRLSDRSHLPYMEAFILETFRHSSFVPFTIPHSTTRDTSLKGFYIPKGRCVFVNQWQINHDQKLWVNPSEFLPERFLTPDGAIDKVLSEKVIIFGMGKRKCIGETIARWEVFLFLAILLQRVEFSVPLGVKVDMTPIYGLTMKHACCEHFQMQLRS
Experiment: Ethoxyresorufin O-deethylation (EROD) in recombinant CYP1A1
Type: biochemical
Details: rCYP1A1 10 pmol/mL, 7-ethoxyresorufin 2 µM, 20 min; read-out: IC50, CYP1A1-mediated EROD
readout.kind: pIC50
Value format note: pIC50 is -log10 of concentration (mol/L); just state the number.

Entry COc1c(O)c(C)cc2c1C(=O)c1c(O)cccc1C2=O [Obtusifolin, obtusifolin] ; assay system rCYP1A1 (Homo sapiens); pIC50 recorded at 6.41

---

Target: recombinant CYP1A2 (rCYP1A2) (Homo sapiens, UniProt P05177)
Experiment: Inhibition of CYP1A2-mediated POD in recombinant CYP1A2
Settings: rCYP1A2 10 pmol/mL, phenacetin; read-out: IC50, CYP1A2-mediated phenacetin O-deethylation
readout.kind: pIC50
Keep in mind that pIC50 stands for -log10 of concentration in molar terms.

Note to self: pIC50 of COc1c(O)c(C)cc2c1C(=O)c1c(O)cccc1C2=O [Obtusifolin, obtusifolin] with recombinant CYP1A2 (rCYP1A2) (Homo sapiens, UniProt P05177) was 6.43
